- experimental target: T1, PTPN21 PTP C1108S-EGFP (UniProt Q16825 872-1174, C1108S)
- T1 sequence: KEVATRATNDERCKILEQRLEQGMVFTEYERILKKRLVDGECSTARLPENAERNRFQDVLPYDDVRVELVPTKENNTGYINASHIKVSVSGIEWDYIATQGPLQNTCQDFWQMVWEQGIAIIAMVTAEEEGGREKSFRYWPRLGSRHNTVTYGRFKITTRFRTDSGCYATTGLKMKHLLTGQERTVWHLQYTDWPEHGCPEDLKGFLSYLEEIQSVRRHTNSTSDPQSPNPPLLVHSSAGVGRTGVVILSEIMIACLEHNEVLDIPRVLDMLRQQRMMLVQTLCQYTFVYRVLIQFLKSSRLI
- experiment: MST
Where no end group is shown, it is not given here. [ ]: non-standard residue; d: D form. pY = N[C@@H](Cc1ccc(OP(=O)(O)O)cc1)C(=O)O
metric name: Kd (nM)
Write the number in nM without appending the unit.

# Kd lookup, item STEPQ[pY]QPGENL (also called Src pY530 synthetic peptide; Peptide Src pY530; source: synthetic peptide (ChinaPeptides Co. Ltd.)) [Src pY530 peptide]
2930
